The values you see were collected from the supplement of paper PMC10567573.

B1: RAB11A (parent)
chain: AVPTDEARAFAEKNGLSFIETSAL

Variants of: B1
Experiment: protein stability index of a GFP-peptide fusion (GPS, HEK-293T) (PSI 1-6); higher = more stable;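 also: lentivirally expressed fusions sorted by FACS into six bins by GFP to DsRed ratio, PSI derived from sequencing read proportions per bin multiplied by bin number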
Conditions: c terminus: a fixed tail appended
Kindly return yes (1) if reported protein stability index is no lower than 3; return no (0) if it is lower.

[[record]]
variantdescriptor = "D5A"
classification = "no (0)"

[[record]]
variantdescriptor = "T21Y"
classification = "no (0)"

[[record]]
variantdescriptor = "A7F"
classification = "no (0)"

[[record]]
variantdescriptor = "N14A"
classification = "no (0)"

[[record]]
variantdescriptor = "I19K"
classification = "yes (1)"

[[record]]
variantdescriptor = "E6Y"
classification = "no (0)"

[[record]]
variantdescriptor = "F10E"
classification = "yes (1)"

[[record]]
variantdescriptor = "S22E"
classification = "yes (1)"

[[record]]
variantdescriptor = "D5K"
classification = "no (0)"

[[record]]
variantdescriptor = "L16W"
classification = "no (0)"

[[record]]
variantdescriptor = "E20F"
classification = "no (0)"

[[record]]
variantdescriptor = "E20P"
classification = "yes (1)"

[[record]]
variantdescriptor = "S22P"
classification = "yes (1)"

[[record]]
variantdescriptor = "T21M"
classification = "no (0)"

[[record]]
variantdescriptor = "K13N"
classification = "no (0)"

[[record]]
variantdescriptor = "T4S"
classification = "no (0)"

[[record]]
variantdescriptor = "A11P"
classification = "no (0)"

[[record]]
variantdescriptor = "S22Q"
classification = "yes (1)"

[[record]]
variantdescriptor = "P3W"
classification = "no (0)"

[[record]]
variantdescriptor = "I19Q"
classification = "yes (1)"

[[record]]
variantdescriptor = "A1V"
classification = "no (0)"

[[record]]
variantdescriptor = "R8I"
classification = "no (0)"

[[record]]
variantdescriptor = "G15E"
classification = "yes (1)"

[[record]]
variantdescriptor = "E20H"
classification = "no (0)"

[[record]]
variantdescriptor = "K13M"
classification = "no (0)"

[[record]]
variantdescriptor = "A9Y"
classification = "no (0)"

[[record]]
variantdescriptor = "F18A"
classification = "yes (1)"

[[record]]
variantdescriptor = "A7G"
classification = "no (0)"

[[record]]
variantdescriptor = "T4P"
classification = "no (0)"

[[record]]
variantdescriptor = "L16N"
classification = "yes (1)"

[[record]]
variantdescriptor = "I19C"
classification = "yes (1)"

[[record]]
variantdescriptor = "E6M"
classification = "no (0)"

[[record]]
variantdescriptor = "A23W"
classification = "no (0)"

[[record]]
variantdescriptor = "A7H"
classification = "no (0)"

[[record]]
variantdescriptor = "I19P"
classification = "yes (1)"

[[record]]
variantdescriptor = "V2M"
classification = "no (0)"

[[record]]
variantdescriptor = "T4H"
classification = "no (0)"

[[record]]
variantdescriptor = "R8C"
classification = "no (0)"

[[record]]
variantdescriptor = "N14R"
classification = "no (0)"

